Assay: Chemical antioxidant capacity, FRAP assay
reported metric: FRAP (curcumin equivalent per μM)

Recorded FRAP (curcumin equivalent per μM), per entry:
> print(dat)
                                   compound                    reported.metric                   observed.value
1  COc1cc(/C=C/C(=O)/C=C(O)/C=C/c2cccc3cnccc23)ccc1O  FRAP (curcumin equivalent per μM)  0.20 curcumin equivalent per μM
2  O=C(/C=C(O)/C=C/c1cccs1)/C=C/c1c[nH]c2ccccc12  FRAP (curcumin equivalent per μM)  0.09 curcumin equivalent per μM
3  COc1cc(/C=C/c2cc(/C=C/c3cccnc3)[nH]n2)ccc1O  FRAP (curcumin equivalent per μM)  0.55 curcumin equivalent per μM

Consider the compound COc1cc(/C=C/c2cc(/C=C/c3cccc4cnccc34)[nH]n2)ccc1O and give its recorded FRAP (curcumin equivalent per μM).
0.14 curcumin equivalent per μM

Consider the compound O=C(/C=C(O)/C=C/c1ccccn1)/C=C/c1c[nH]c2ccccc12 and give its recorded FRAP (curcumin equivalent per μM).
0.15 curcumin equivalent per μM

Consider the compound O=C(/C=C(O)/C=C/c1cccnc1)/C=C/c1c[nH]c2ccccc12 and give its recorded FRAP (curcumin equivalent per μM).
0.12 curcumin equivalent per μM

Consider the compound Cc1c(C)c2c(c(C)c1O)CC[C@@](C)(CCC[C@H](C)CCC[C@H](C)CCCC(C)C)O2 [α‐Tocopherol, α‐tocopherol, reference compound] and give its recorded FRAP (curcumin equivalent per μM).
0.68 curcumin equivalent per μM

Consider the compound COc1cc(/C=C/C(=O)/C=C(O)/C=C/c2ccccn2)ccc1O and give its recorded FRAP (curcumin equivalent per μM).
0.40 curcumin equivalent per μM

Consider the compound COc1cc(/C=C/c2cc(/C=C/c3ccncc3)[nH]n2)ccc1O and give its recorded FRAP (curcumin equivalent per μM).
0.42 curcumin equivalent per μM

Consider the compound COc1cc(/C=C/C(=O)/C=C(O)/C=C/c2ccncc2)ccc1O and give its recorded FRAP (curcumin equivalent per μM).
0.54 curcumin equivalent per μM

Consider the compound C(=C\c1c[nH]c2ccccc12)/c1cc(/C=C/c2cccs2)[nH]n1 and give its recorded FRAP (curcumin equivalent per μM).
0.32 curcumin equivalent per μM

Consider the compound Cc1c(C)c2c(c(C)c1O)CCC(C)(C(=O)O)O2 (centres unmarked) [Trolox, reference compound] and give its recorded FRAP (curcumin equivalent per μM).
1.00 curcumin equivalent per μM

Consider the compound COc1cc(/C=C/C(=O)/C=C(O)/C=C/c2ccc[nH]2)ccc1O and give its recorded FRAP (curcumin equivalent per μM).
0.54 curcumin equivalent per μM

Consider the compound O=C1O[C@H]([C@@H](O)CO)C(O)=C1O [Ascorbic acid, ascorbic acid, reference compound] and give its recorded FRAP (curcumin equivalent per μM).
0.57 curcumin equivalent per μM

Consider the compound O=C(/C=C(O)/C=C/c1ccc[nH]1)/C=C/c1c[nH]c2ccccc12 and give its recorded FRAP (curcumin equivalent per μM).
0.27 curcumin equivalent per μM

Consider the compound O=C(/C=C(O)/C=C/c1ccncc1)/C=C/c1c[nH]c2ccccc12 and give its recorded FRAP (curcumin equivalent per μM).
0.18 curcumin equivalent per μM

Consider the compound COc1cc(/C=C/C(=O)/C=C(O)/C=C/c2ccnc3ccccc23)ccc1O and give its recorded FRAP (curcumin equivalent per μM).
0.20 curcumin equivalent per μM

Consider the compound COc1cc(/C=C/C(=O)/C=C(O)/C=C/c2c[nH]c3ccccc23)ccc1O and give its recorded FRAP (curcumin equivalent per μM).
0.42 curcumin equivalent per μM

Consider the compound COc1cc(/C=C/C(=O)/C=C(O)/C=C/c2cccnc2)ccc1O and give its recorded FRAP (curcumin equivalent per μM).
0.40 curcumin equivalent per μM

Consider the compound O=C(/C=C(O)/C=C/c1ccc2ccccc2n1)/C=C/c1c[nH]c2ccccc12 and give its recorded FRAP (curcumin equivalent per μM).
0.19 curcumin equivalent per μM

* * *

System: Caco‐2
Assay: Cytotoxicity, mitochondrial activity
Assay type: cell-based
Settings: Homo sapiens, Caco-2, 72 h, read-out: IC50 MTT
Quick reference for IC50 among some compounds
API: value field is a number in µM; no unit string.

Recorded IC50, per entry:
compound	unit	IC50
O=C(/C=C(O)/C=C/c1ccc2ccccc2n1)/C=C/c1c[nH]c2ccccc12	µM	44.7
COc1cc(/C=C/C(=O)/C=C(O)/C=C/c2c[nH]c3ccccc23)ccc1O	µM	5.8
COc1cc(/C=C/C(=O)/C=C(O)/C=C/c2ccc[nH]2)ccc1O	µM	17.1
O=C(/C=C(O)/C=C/c1cccs1)/C=C/c1c[nH]c2ccccc12	µM	0.5
O=C(/C=C(O)/C=C/c1ccncc1)/C=C/c1c[nH]c2ccccc12	µM	47.1
COc1cc(/C=C/c2cc(/C=C/c3cccnc3)[nH]n2)ccc1O	µM	53.7
COc1cc(/C=C/C(=O)/C=C(O)/C=C/c2cccnc2)ccc1O	µM	14.6
COc1cc(/C=C/C(=O)/C=C(O)/C=C/c2ccnc3ccccc23)ccc1O	µM	46.3

Consider the compound O=C(/C=C(O)/C=C/c1ccccn1)/C=C/c1c[nH]c2ccccc12 and give its recorded IC50.
35.5

Consider the compound COc1cc(/C=C/c2cc(/C=C/c3ccncc3)[nH]n2)ccc1O and give its recorded IC50.
39.3

Consider the compound C(=C\c1c[nH]c2ccccc12)/c1cc(/C=C/c2cccs2)[nH]n1 and give its recorded IC50.
19.6

Consider the compound COc1cc(/C=C/C(=O)/C=C(O)/C=C/c2cccc3cnccc23)ccc1O and give its recorded IC50.
6.9

Consider the compound COc1cc(/C=C/C(=O)/C=C(O)/C=C/c2ccccn2)ccc1O and give its recorded IC50.
22.3

Consider the compound COc1cc(/C=C/C(=O)/C=C(O)/C=C/c2ccncc2)ccc1O and give its recorded IC50.
7.1

* * *

Test system: HT‐29
Test: Cytotoxicity, mitochondrial activity
Assay type: cell-based
Details: Homo sapiens, HT-29, 72 h, read-out: IC50 MTT
Quick reference for IC50 among some compounds
Answer format: value, then unit.

Recorded IC50, per entry:
compound	IC50
COc1cccc2c1C(=O)c1c(O)c3c(c(O)c1C2=O)C[C@@](O)(C(=O)CO)C[C@@H]3O[C@H]1C[C@H](N)[C@H](O)[C@H](C)O1 [Dox, doxorubicin, reference compound]	4.8 µM
COc1cc(/C=C/C(=O)/C=C(O)/C=C/c2cccnc2)ccc1O [3 a]	17.9 µM
COc1cc(/C=C/C(=O)/C=C(O)/C=C/c2ccccn2)ccc1O [3 b]	34.3 µM
COc1cc(/C=C/C(=O)/C=C(O)/C=C/c2c[nH]c3ccccc23)ccc1O [3 g]	12.9 µM
COc1cc(/C=C/c2cc(/C=C/c3cccc4cnccc34)[nH]n2)ccc1O [4 c]	37.7 µM
O=C(/C=C(O)/C=C/c1cccnc1)/C=C/c1c[nH]c2ccccc12 [3 h]	6.4 µM
COc1cc(/C=C/C(=O)/C=C(O)/C=C/c2ccncc2)ccc1O [3 c]	4.9 µM
O=C(/C=C(O)/C=C/c1ccncc1)/C=C/c1c[nH]c2ccccc12 [3 i]	42 µM
O=C(/C=C(O)/C=C/c1ccccn1)/C=C/c1c[nH]c2ccccc12 [3 j]	33.8 µM

In the following, a different compound is considered.
Answer briefly: IC50 recorded on HT‐29 for COc1cc(/C=C/C(=O)/C=C(O)/C=C/c2ccc[nH]2)ccc1O [3 f]
33.9 µM

* * *

System: Caco‐2
Experiment: Cell growth inhibition, protein content
Assay type: cell-based
Conditions: Homo sapiens, Caco-2, 72 h, read-out: IC50 SRB
Binarize IC50 at 30 µM; below is True, at or above is False.

Some solved cases for reference:
> print(dat)
                                   compound  class.name
1  O=C(/C=C(O)/C=C/c1ccc[nH]1)/C=C/c1c[nH]c2ccccc12 [3 l]        True
2  C(=C\c1c[nH]c2ccccc12)/c1cc(/C=C/c2cccs2)[nH]n1 [4 d]        True
3  O=C(/C=C(O)/C=C/c1ccc2ccccc2n1)/C=C/c1c[nH]c2ccccc12 [3 k]       False
4  COc1cc(/C=C/C(=O)CC(=O)/C=C/c2ccc(O)c(OC)c2)ccc1O [Cur, curcumin, reference compound]       False
5  O=C(/C=C(O)/C=C/c1ccccn1)/C=C/c1c[nH]c2ccccc12 [3 j]       False
6  COc1cc(/C=C/C(=O)/C=C(O)/C=C/c2ccncc2)ccc1O [3 c]        True
7  COc1cc(/C=C/C(=O)/C=C(O)/C=C/c2ccnc3ccccc23)ccc1O [3 d]       False
8  COc1cc(/C=C/c2cc(/C=C/c3cccc4cnccc34)[nH]n2)ccc1O [4 c]       False

Threshold test, IC50 < 30 µM: COc1cc(/C=C/C(=O)/C=C(O)/C=C/c2ccccn2)ccc1O [3 b]
True

Threshold test, IC50 < 30 µM: COc1cc(/C=C/C(=O)/C=C(O)/C=C/c2cccc3cnccc23)ccc1O [3 e]
True

Reference source for all entries: paper PMC6392825
